// provenance: patent US20180057505A1

test: In vivo rat pharmacokinetics experiments; settings: oral gavage, dose 1 to 600 mg/kg
Everything with F lower than 50% is false; everything else, including exactly 50%, is true.

Record excerpt, results attached:
molecule="CC1(C)CCC(c2cc(C(C)(C)C)c3oc(C(=O)N4CCN(C(=O)CCC(C)(C)C(=O)O)CC4(C)C)cc3n2)CC1 [Compound I-354]" qualitative_label=true
molecule="Cc1ccc(C(=O)O)c(N2CCN(C(=O)c3cc4nc(-c5ccc(Cl)c(F)c5)cc(C(C)(C)C)c4o3)C(C)(C)C2)n1 [Compound I-352]" qualitative_label=false

Decide: F of CC(C)(C)c1cc(-c2ccc(Cl)c(F)c2)nc2cc(C(=O)N3CCN(c4cccc(C(=O)O)n4)CC3(C)C)oc12 [Example I-448] >= 50%?
true

Decide: F of CC(C)[C@H](CC(=O)N1CCN(C(=O)c2cc3nc(-c4ccc(Cl)c(F)c4)cc(C(C)(C)C)c3o2)C(C)(C)C1)C(=O)O [Compound I-343] >= 50%?
false

Decide: F of CC1(C)CCC(c2cc(C(C)(C)C)c3oc(C(=O)N4CCN(c5cccc(-c6nnn[nH]6)n5)CC4(C)C)cc3n2)CC1 [Compound I-345] >= 50%?
true

Decide: F of CC1(C)CCC(c2cc(C(C)(C)C)c3oc(C(=O)N4CCN(c5ncc(-c6nnn[nH]6)cn5)CC4(C)C)cc3n2)CC1 [Compound I-346] >= 50%?
false

* * *

Experiment: In vivo rat pharmacokinetics experiments
Conditions: oral gavage, dose 1 to 600 mg/kg
Protocol: Example 99: Protocol for Testing PAR2 Compounds In Vivo Rat Pharmacokinetics Experiments […] Rats were bled by venipuncture (jugular vein) and the samples were collected into tubes containing K3EDTA. […] Pharmacokinetic parameters were calculated using non-compartmental analysis.
measurement_type: F (%)
All answers are understood in %, so give the number only.

compound="Cc1nc(N2CCN(C(=O)c3cc4nc(C5CCC(C)(C)CC5)cc(C(C)(C)C)c4o3)C(C)(C)C2)ncc1C(=O)O [Compound I-465]" measured_result=46

For the compound CC(C)(C)c1cc(-c2ccc(Cl)c(F)c2)nc2cc(C(=O)N3CCN(c4cn[nH]c4)C(=O)C3(C)C)oc12 [Compound I-260] , give its reported F.
87

For the compound CC(C)(C)c1cc(-c2ccc(Cl)c(F)c2)nc2cc(C(=O)N3CCN(c4ccn[nH]4)C(=O)C3(C)C)oc12 [Compound I-406] , give its reported F.
66

* * *

Below: a set of entries, each annotated with reported pIC50.
target: PAR2 (HT-29 cells) (Homo sapiens, UniProt P55085); construct: host or cells: HT-29; experiment: Ca FLIPR TETRA assay, ANTAGONIST mode, activator 8 μM SLIGKV; assay type: cell-based; conditions: HT-29 cells; activator 8 μM SLIGKV; Method A: maximal concentration of antagonist 0.1, 1 or 2 μM
Sequence (P55085 26-397): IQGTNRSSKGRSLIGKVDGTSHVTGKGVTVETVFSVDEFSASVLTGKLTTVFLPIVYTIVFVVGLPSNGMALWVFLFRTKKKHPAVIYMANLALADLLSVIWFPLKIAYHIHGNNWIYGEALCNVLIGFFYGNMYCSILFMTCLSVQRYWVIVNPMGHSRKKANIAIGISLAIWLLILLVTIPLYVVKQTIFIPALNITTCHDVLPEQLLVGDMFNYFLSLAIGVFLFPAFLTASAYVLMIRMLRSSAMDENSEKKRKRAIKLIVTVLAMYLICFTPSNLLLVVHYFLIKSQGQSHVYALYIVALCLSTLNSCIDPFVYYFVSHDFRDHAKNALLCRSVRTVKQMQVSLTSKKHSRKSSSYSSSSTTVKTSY
Please express pIC50 as -log10 of the molar concentration.

Illustrative cases are given below, each with its answer.
compound="CC(C)(C)c1cc(-c2ccc(Cl)cc2)nc2cc(C(=O)N3CCN(C(=O)[C@@H]4CCCC[C@H]4C(=O)O)CC3(C)C)oc12 [Example I-511]" measured_result=7.37
compound="Cc1nc(N2CCN(C(=O)c3cc4nc(C5CCC(C)(C)CC5)cc(C(C)(C)C)c4o3)C(C)(C)C2)ncc1C(=O)O [Example I-465]" measured_result=9.30
compound="CC(C)(C)c1cc(-c2ccc(Cl)c(F)c2)nc2cc(C(=O)N3CCN(c4ncc(-c5nnn[nH]5)cn4)CC3(C)C)oc12 [Example I-331]" measured_result=8.89
compound="Cc1ccc(N2CCN(C(=O)c3cc4nc(-c5ccc(Cl)c(F)c5)cc(C(C)(C)C)c4o3)C(C)(C)C2)nc1-c1nnn[nH]1 [Example I-532]" measured_result=9.52
compound="Cc1nc(N2CCN(C(=O)c3cc4nc(-c5ccc(Cl)cc5)cc(C(C)(C)C)c4o3)C(C)(C)C2)ncc1C(=O)O [Example I-462]" measured_result=9.22
compound="CC(C)(CCC(=O)N1CCN(C(=O)c2cc3nc(-c4ccc(Cl)cc4)cc(C(C)(C)C)c3o2)C(C)(C)C1)C(=O)O [Example I-366]" measured_result=9.10
compound="Cc1cnc(N2CCN(C(=O)c3cc4nc(-c5ccc(Cl)c(F)c5)cc(C(C)(C)C)c4o3)C(C)(C)C2)c(C(=O)O)c1 [Example I-492]" measured_result=8.12
compound="CC(C)(C)c1cc(-c2ccc(Cl)c(F)c2)nc2cc(C(=O)N3CCN(c4cc(C(=O)O)ncn4)CC3(C)C)oc12 [Example I-490]" measured_result=8.51
compound="Cn1nccc1S(=O)(=O)N1CCN(C(=O)c2cc3nc(-c4ccc(Cl)c(F)c4)cc(C(C)(C)C)c3o2)C(C)(C)C1=O [Example I-342]" measured_result=7.03
compound="CC1(C)CCC(c2cc(C(C)(C)C)c3oc(C(=O)N4CCN(C(=O)CCC(C)(C)C(=O)O)CC4(C)C)cc3n2)CC1 [Example I-354]" measured_result=9.52

Give pIC50 for this entry on PAR2 (HT-29 cells) (Homo sapiens, UniProt P55085): Cc1cc(C(=O)N2CCN(C(=O)c3cc4nc(C5CCC(C)(C)CC5)cc(C(C)(C)C)c4o3)C(C)(C)C2)[nH]n1 [Example I-523]
8.70

Give pIC50 for this entry on PAR2 (HT-29 cells) (Homo sapiens, UniProt P55085): Cc1cnc(N2CCN(C(=O)c3cc4nc(-c5ccc(Cl)cc5)cc(C(C)(C)C)c4o3)C(C)(C)C2)nc1 [Example I-388]
7.44

Give pIC50 for this entry on PAR2 (HT-29 cells) (Homo sapiens, UniProt P55085): CC1(C)CCC(c2cc(C(C)(C)C)c3oc(C(=O)N4CCC(c5ncc(C(=O)O)cn5)CC4(C)C)cc3n2)CC1 (centres unmarked) [Example I-427]
9.30

Give pIC50 for this entry on PAR2 (HT-29 cells) (Homo sapiens, UniProt P55085): CC(C)(C)c1cc(-c2ccc(Cl)c(F)c2)nc2cc(C(=O)N3CCN(S(C)(=O)=O)C(=O)C3(C)C)oc12 [Example I-353]
7.42

Give pIC50 for this entry on PAR2 (HT-29 cells) (Homo sapiens, UniProt P55085): CCS(=O)(=O)NCC(=O)N1CCN(C(=O)c2cc3nc(-c4ccc(Cl)c(F)c4)cc(C(C)(C)C)c3o2)C(C)(C)C1 [Example I-468]
8.60

Give pIC50 for this entry on PAR2 (HT-29 cells) (Homo sapiens, UniProt P55085): CC(C)(C)c1cc(-c2ccc(Cl)cc2)nc2cc(C(=O)N3CCC(=O)NCC3(C)C)oc12 [Example I-322]
7.04

Give pIC50 for this entry on PAR2 (HT-29 cells) (Homo sapiens, UniProt P55085): CC(C)(C)c1cc(-c2ccc(Cl)c(F)c2)nc2cc(C(=O)N3CCN(c4ccc(C(=O)O)cn4)C(=O)C3(C)C)oc12 [Example I-405]
8.74

Give pIC50 for this entry on PAR2 (HT-29 cells) (Homo sapiens, UniProt P55085): CC(C)(C)c1cc(-c2ccc(Cl)c(F)c2)nc2cc(C(=O)N3CCN(C(=O)[C@@H]4CCCC[C@@H]4C(=O)O)CC3(C)C)oc12 [Example I-500]
9.40

Give pIC50 for this entry on PAR2 (HT-29 cells) (Homo sapiens, UniProt P55085): CC(C)(C)c1cc(-c2ccc(Cl)cc2)nc2cc(C(=O)N3CCN(c4nc(C(=O)O)co4)CC3(C)C)oc12 [Example I-481]
9.52

Give pIC50 for this entry on PAR2 (HT-29 cells) (Homo sapiens, UniProt P55085): CC(C)[C@@H](CC(=O)O)C(=O)N1CCN(C(=O)c2cc3nc(-c4ccc(Cl)c(F)c4)cc(C(C)(C)C)c3o2)C(C)(C)C1 [Example I-373]
9.22

Give pIC50 for this entry on PAR2 (HT-29 cells) (Homo sapiens, UniProt P55085): CC(C)(C)c1cc(-c2ccc(Cl)cc2)nc2cc(C(=O)N3CCN(C(=O)CCC(=O)O)CC3(C)C)oc12 [Example I-420]
8.34

Give pIC50 for this entry on PAR2 (HT-29 cells) (Homo sapiens, UniProt P55085): Cc1cncc(N2CCN(C(=O)c3cc4nc(-c5ccc(Cl)c(F)c5)cc(C(C)(C)C)c4o3)C(C)(C)C2=O)n1 [Example I-334]
8.85
